The reader will find reported pIC50 values listed item by item below.
Target: NLRP3 inflammasome (Homo sapiens (Human))
Sequence (Q96P20 whole entry): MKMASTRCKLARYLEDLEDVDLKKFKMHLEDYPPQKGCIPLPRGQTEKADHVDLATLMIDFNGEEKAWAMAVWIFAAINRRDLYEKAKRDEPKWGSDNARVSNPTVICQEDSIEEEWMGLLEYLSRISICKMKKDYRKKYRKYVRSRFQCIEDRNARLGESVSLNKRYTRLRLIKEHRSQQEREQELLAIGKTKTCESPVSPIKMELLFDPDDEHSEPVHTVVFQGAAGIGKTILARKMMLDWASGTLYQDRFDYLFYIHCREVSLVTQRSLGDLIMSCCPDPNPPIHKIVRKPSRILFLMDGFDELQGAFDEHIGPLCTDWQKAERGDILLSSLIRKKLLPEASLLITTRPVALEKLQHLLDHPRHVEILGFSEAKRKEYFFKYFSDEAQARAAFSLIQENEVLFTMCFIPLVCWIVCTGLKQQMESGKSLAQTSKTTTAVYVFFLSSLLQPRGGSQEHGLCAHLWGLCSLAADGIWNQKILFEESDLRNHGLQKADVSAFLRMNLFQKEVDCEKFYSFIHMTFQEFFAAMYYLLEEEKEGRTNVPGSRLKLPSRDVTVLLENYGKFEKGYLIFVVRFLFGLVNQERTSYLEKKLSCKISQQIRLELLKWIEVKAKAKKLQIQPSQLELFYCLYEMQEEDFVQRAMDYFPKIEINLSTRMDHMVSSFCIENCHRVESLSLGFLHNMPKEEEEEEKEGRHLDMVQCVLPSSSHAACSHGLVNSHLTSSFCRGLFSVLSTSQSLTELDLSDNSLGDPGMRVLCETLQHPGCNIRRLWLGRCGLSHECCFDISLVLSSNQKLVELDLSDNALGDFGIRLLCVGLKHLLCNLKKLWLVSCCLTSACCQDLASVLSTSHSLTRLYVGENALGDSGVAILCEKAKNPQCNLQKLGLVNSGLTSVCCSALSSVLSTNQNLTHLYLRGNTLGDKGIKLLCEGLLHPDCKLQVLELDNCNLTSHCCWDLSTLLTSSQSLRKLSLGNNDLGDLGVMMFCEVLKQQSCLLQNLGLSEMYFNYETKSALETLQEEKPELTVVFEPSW
Assay: Evaluation of NLRP3 inflammasome inhibitory activity (inhibition of IL-1β production in LPS/Nigericin-stimulated THP1-Null cells)
Details: IL-1β production in THP1-Null cells, PMA, LPS 1 μg/mL, Nigericin 7.5 μmol/L, AlphaLISA
In plain terms, pIC50 is the concentration in mol/L turned into minus its base-10 logarithm.

Before answering, review these 5 worked examples.
COC1CN(c2nc3nn(-c4ccc(C)cc4C)cc3c(=O)[nH]2)C1 [Example 59] :: 6.43
O=c1[nH]c(N2CCCC2)nc2nn(-c3ccccc3C(F)(F)F)cc12 [Example 8] :: 6.23
O=c1[nH]c(N2CCOCC2)nc2nn(-c3ccccc3C(F)(F)F)cc12 [Example 25] :: 6.02
Cc1c(Cl)ccc(-n2cc3c(=O)[nH]c(N4CCOCC4)nc3n2)c1C [Example 282] :: 6.74
Cc1cc(Br)ccc1-n1cc2c(OC(C)C)nc(N3CCOCC3)nc2n1 [Example 136] :: 6.64

Now for a further compound.
Challenge: Requested field: pIC50. Item: Cc1cc(Br)ccc1-n1cc2c(=O)n(CC#N)c(N3CCN(S(C)(=O)=O)CC3)nc2n1 [Example 173]
Response given: 6.92
